test-target: Raf and/or Mek kinase (human c-Raf, GST-MEK1) (Homo sapiens, UniProt P04049+Q02750)
Construct: Sf9 insect cell lysate containing full length 6his-tagged recombinant human c-Raf; 6His; E. coli (MEK1-GST, GST-MAPK)
Sequence (P04049 whole entry): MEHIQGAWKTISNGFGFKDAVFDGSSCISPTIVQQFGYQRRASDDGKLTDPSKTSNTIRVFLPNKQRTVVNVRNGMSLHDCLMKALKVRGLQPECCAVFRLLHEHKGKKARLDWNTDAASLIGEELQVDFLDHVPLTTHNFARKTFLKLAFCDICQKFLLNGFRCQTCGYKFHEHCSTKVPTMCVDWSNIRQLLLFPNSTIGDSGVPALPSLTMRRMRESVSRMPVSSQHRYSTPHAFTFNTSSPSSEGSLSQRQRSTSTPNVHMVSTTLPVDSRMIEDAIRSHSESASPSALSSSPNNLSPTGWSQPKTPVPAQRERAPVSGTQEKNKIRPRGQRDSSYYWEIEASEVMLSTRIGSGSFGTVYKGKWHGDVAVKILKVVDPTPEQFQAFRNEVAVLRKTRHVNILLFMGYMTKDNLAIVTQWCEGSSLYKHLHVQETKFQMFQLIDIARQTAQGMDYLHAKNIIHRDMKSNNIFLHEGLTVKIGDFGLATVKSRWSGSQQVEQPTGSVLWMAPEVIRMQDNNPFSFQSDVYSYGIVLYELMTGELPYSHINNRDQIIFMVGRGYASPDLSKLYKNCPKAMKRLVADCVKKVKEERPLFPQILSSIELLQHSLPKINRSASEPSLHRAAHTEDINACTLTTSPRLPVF
Sequence (Q02750 whole entry): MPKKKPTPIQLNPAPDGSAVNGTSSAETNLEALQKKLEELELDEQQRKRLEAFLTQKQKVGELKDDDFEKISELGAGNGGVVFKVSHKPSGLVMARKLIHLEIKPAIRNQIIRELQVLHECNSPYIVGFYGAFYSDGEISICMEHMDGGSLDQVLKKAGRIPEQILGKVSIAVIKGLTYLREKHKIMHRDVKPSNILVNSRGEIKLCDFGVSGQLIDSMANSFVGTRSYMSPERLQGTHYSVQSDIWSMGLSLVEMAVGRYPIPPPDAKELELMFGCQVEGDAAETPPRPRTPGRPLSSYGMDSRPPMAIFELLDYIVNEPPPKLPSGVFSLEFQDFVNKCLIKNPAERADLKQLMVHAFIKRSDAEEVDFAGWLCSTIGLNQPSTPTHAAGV
assay-protocol: Raf/Mek kinase cascade assay
condition-context: c-Raf dependent activation of GST-MEK and GST-MAPK, phospho-MAPK ELISA; (a)/(b)/(c) = average of two/three/four runs
Counter-ions that a name gives are not always drawn.
assay-metric: IC50 (nM)
Write the value in nM as a bare number.

// solved cases for IC50 follow
>  <molecule>
COCCOc1cc2c(Nc3ccc(Sc4nccn4C)c(Cl)c3)c(C#N)cnc2cc1N1CCC(N2CCCC2)CC1 [Example 17]

>  <assay-metric>
IC50

>  <experimental-result>
320

$$$$
>  <molecule>
Cn1ccnc1Sc1ccc(Nc2c(C#N)cnc3cc(N4CCC(N5CCCC5)CC4)ccc23)cc1Cl [Example 16]

>  <assay-metric>
IC50

>  <experimental-result>
35

$$$$
>  <molecule>
CC(=O)N(C(C)=O)c1cc2c(Nc3ccc(Sc4nccn4C)c(Cl)c3)c(C#N)cnc2cc1N1CCC(N2CCCC2)CC1 [Example 28]

>  <assay-metric>
IC50

>  <experimental-result>
2390

$$$$
>  <molecule>
COc1ccccc1Oc1ccc(Nc2c(C#N)cnc3cc(N4CCC(N5CCCC5)CC4)c(OC)cc23)cc1 [Example 12, trifluoroacetate salt]

>  <assay-metric>
IC50

>  <experimental-result>
210

$$$$
>  <molecule>
COc1cc2c(Nc3ccc(Sc4nccn4C)c(Cl)c3)c(C#N)cnc2cc1N1CCC(N2CCCCC2)CC1 [Example 19]

>  <assay-metric>
IC50

>  <experimental-result>
199

$$$$
>  <molecule>
COc1cc2c(Nc3ccc(Oc4cccnc4)cc3)c(C#N)cnc2cc1N1CCC(N2CCCC2)CC1 [Example 15]

>  <assay-metric>
IC50

>  <experimental-result>
1720

$$$$

Let us move to another entry and its IC50.
Need IC50 of CC(=O)Nc1cc2c(Nc3ccc(Sc4nccn4C)c(Cl)c3)c(C#N)cnc2cc1N1CCC(N2CCCC2)CC1 [Example 29] , thanks.
1640
